From: paper PMC8147781

Tested on: H9, cutaneous T lymphocyte cell line
PROCEDURE DETAILS: Cytotoxicity assay (PrestoBlue), H9
PARTICULARS: CC50, 72 h
METRIC: Cytotoxicity effect (µM) T-lymphocyte H9

Some solved cases for reference:
O=C(C1=C(O)C(=O)N(Cc2cscn2)C1c1ccc(Cl)cc1)c1ccc(Br)cc1 (stereo not shown) ... > 100 µM
CCN1C(=O)C(O)=C(C(=O)c2ccc(Br)cc2)C1c1ccc(Cl)cc1 (stereo not shown) ... > 100 µM
O=C(C1=C(O)C(=O)N(Cc2ccco2)C1c1ccc(Cl)cc1)c1ccc(Br)cc1 (stereo not shown) ... > 100 µM
O=C(C1=C(O)C(=O)N(Cc2cccc(F)c2)C1c1ccc(Cl)cc1)c1ccc(Br)cc1 (stereo not shown) ... > 100 µM
O=C(C1=C(O)C(=O)N(Cc2cc3cc(Cl)ccc3[nH]2)C1c1ccc(Cl)cc1)c1ccc(Br)cc1 (stereo not shown) ... 96 ± 7 µM
O=C(C1=C(O)C(=O)N(CCc2c[nH]c3ccccc23)C1c1ccc(Cl)cc1)c1ccc(Br)cc1 (stereo not shown) ... > 100 µM

Reported Cytotoxicity effect (µM) T-lymphocyte H9 for O=C(C1=C(N2CCOCC2)C(=O)N(Cc2cccc(F)c2)C1c1ccc(Cl)cc1)c1ccc(Br)cc1 (stereo not shown) was > 100 µM

Reported Cytotoxicity effect (µM) T-lymphocyte H9 for O=C(C1=C(O)C(=O)N(Cc2nc3ccccc3[nH]2)C1c1ccc(Cl)cc1)c1ccc(Br)cc1 (stereo not shown) was > 100 µM

Reported Cytotoxicity effect (µM) T-lymphocyte H9 for O=C(C1=C(O)C(=O)N(Cc2c[nH]c3ccccc23)C1c1ccc(Cl)cc1)c1ccc(Br)cc1 (stereo not shown) was > 100 µM

Reported Cytotoxicity effect (µM) T-lymphocyte H9 for C[C@@H]1C[C@@H]([C@H](O)CC2CC(=O)NC(=O)C2)C(=O)[C@@H](C)C1 [Cycloheximide, reference compound] was 0.53 ± 0.3 µM

Reported Cytotoxicity effect (µM) T-lymphocyte H9 for CCNC1=C(C(=O)c2ccc(Br)cc2)C(c2ccc(Cl)cc2)N(Cc2cccc(F)c2)C1=O (stereo not shown) was > 100 µM

Reported Cytotoxicity effect (µM) T-lymphocyte H9 for O=C(C1=C(O)C(=O)N(Cc2cc3cnccc3[nH]2)C1c1ccc(Cl)cc1)c1ccc(Br)cc1 (stereo not shown) was 48 ± 2 µM

Reported Cytotoxicity effect (µM) T-lymphocyte H9 for CCNC1=C(C(=O)c2ccc(Br)cc2)C(c2ccc(Cl)cc2)N(Cc2c[nH]c3ccccc23)C1=O (stereo not shown) was 32 ± 10 µM

Reported Cytotoxicity effect (µM) T-lymphocyte H9 for O=C1NC(c2ccc(Cl)cc2)C(C(=O)c2ccc(Br)cc2)=C1O (stereo not shown) was > 100 µM

Reported Cytotoxicity effect (µM) T-lymphocyte H9 for O=C(C1=C(O)C(=O)N(CCc2cc3ccccc3[nH]2)C1c1ccc(Cl)cc1)c1ccc(Br)cc1 (stereo not shown) was 19 ± 6 µM

Reported Cytotoxicity effect (µM) T-lymphocyte H9 for O=C(C1=C(O)C(=O)N(Cc2cc3ccccc3[nH]2)C1c1ccc(Cl)cc1)c1ccc(Br)cc1 (stereo not shown) was > 100 µM

----------
Listed compounds paired with reported inhibition at 100 µM
TARGET ENTITY: PBP3 of P. aeruginosa (PaPBP3) (Pseudomonas aeruginosa)
Construct: P. aeruginosa PBP3 (amino acids 40 to 563); His-tag; made in house; host or cells: E. coli BL21 (DE3) Rosetta, plasmid pET41_PBP-3
PROCEDURE DETAILS: S2dfluo fluorescence transpeptidase assay
Assay type: biochemical
PARTICULARS: read-out: PBP3 Inhibition at 100 µM (%)
Lab book: enter the figure in %, no units written.

Some solved cases for reference:
CCCCCCOc1cccc(N2C(=O)C(O)=C(C(=O)c3ccccc3)C2c2ccc(C(C)C)cc2)c1 (stereo not drawn) ... 101
COc1ccc(C2=C(O)C(=O)N(c3nc(SCc4ccccc4)n[nH]3)C2c2ccccc2F)cc1 (stereo not drawn) ... 62
COc1ccc(C(=O)C2=C(O)C(=O)N(CCc3c(C)[nH]c4ccccc34)C2c2ccc(Cl)cc2)cc1 (stereo not drawn) ... 92

Reported inhibition at 100 µM for CCOC(=O)c1ccc(N2C(=O)C(O)=C(S(=O)(=O)c3ccccc3)C2c2ccc(C(C)C)cc2)cc1 (stereo not drawn) was 101

Reported inhibition at 100 µM for CSc1ccc(C2c3c(oc4cc(C)cc(C)c4c3=O)C(=O)N2CC2CCCO2)cc1 (stereo not drawn) was 60

Reported inhibition at 100 µM for CCCCCCOc1cccc(N2C(=O)C(O)=C(C(=O)c3ccccc3)C2c2ccccc2F)c1 (stereo not drawn) was 100

----------
Listed compounds paired with reported pIC50
TARGET ENTITY: PBP3 of P. aeruginosa (PaPBP3) (Pseudomonas aeruginosa, UniProt G3XD46)
Construct: P. aeruginosa PBP3 (amino acids 40 to 563); His-tag; made in house; host or cells: E. coli BL21 (DE3) Rosetta, plasmid pET41_PBP-3
Sequence (G3XD46 40-563): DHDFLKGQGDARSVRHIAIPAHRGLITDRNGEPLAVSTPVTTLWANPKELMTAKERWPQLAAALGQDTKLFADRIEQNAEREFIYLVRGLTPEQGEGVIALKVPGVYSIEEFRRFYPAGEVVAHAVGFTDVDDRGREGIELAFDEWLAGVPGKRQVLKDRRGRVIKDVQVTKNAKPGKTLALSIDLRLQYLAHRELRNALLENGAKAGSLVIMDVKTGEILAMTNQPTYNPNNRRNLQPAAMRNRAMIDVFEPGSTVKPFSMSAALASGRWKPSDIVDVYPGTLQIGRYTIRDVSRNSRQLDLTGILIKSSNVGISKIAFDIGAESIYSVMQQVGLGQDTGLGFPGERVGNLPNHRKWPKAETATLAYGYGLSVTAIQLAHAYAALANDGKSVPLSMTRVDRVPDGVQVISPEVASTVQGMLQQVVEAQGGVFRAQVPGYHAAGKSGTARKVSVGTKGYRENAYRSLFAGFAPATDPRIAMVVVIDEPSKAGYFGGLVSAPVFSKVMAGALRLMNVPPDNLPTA
PROCEDURE DETAILS: FP-Bocillin FL competition assay
Assay type: binding
PARTICULARS: 30 min preincubation before Bocillin FL, 37 °C; read-out: IC50 Determination with PaPBP3, FP-Bocillin FL Assay
pIC50: −log10 of the molar value.

CCNC1=C(C(=O)c2ccc(Br)cc2)C(c2ccc(Cl)cc2)N(Cc2cccc(F)c2)C1=O (centres unmarked) [Compound 43] ... < 4.00
CCNC1=C(C(=O)c2ccc(Br)cc2)C(c2ccc(Cl)cc2)N(Cc2c[nH]c3ccccc23)C1=O (centres unmarked) [Compound 45] ... < 4.00
O=C(C1=C(N2CCOCC2)C(=O)N(Cc2cccc(F)c2)C1c1ccc(Cl)cc1)c1ccc(Br)cc1 (centres unmarked) [Compound 44] ... < 4.00
O=C(C1=C(O)C(=O)N(Cc2cc3cnccc3[nH]2)C1c1ccc(Cl)cc1)c1ccc(Br)cc1 (centres unmarked) [Compound 36] ... < 4.00
CSc1ccc(C2c3c(oc4cc(C)cc(C)c4c3=O)C(=O)N2CC2CCCO2)cc1 (centres unmarked) [Compound 9] ... 4.74
COc1ccc(C2=C(O)C(=O)N(c3nc(SCc4ccccc4)n[nH]3)C2c2ccccc2F)cc1 (centres unmarked) [Compound 7] ... 4.24
O=C(C1=C(O)C(=O)N(Cc2ccco2)C1c1ccc(Cl)cc1)c1ccc(Br)cc1 (centres unmarked) [Compound 41] ... < 4.00

Now look at this one.
So the reported pIC50 for O=C(C1=C(O)C(=O)N(Cc2cccc(F)c2)C1c1ccc(Cl)cc1)c1ccc(Br)cc1 (centres unmarked) [Compound 1] , on PBP3 of P. aeruginosa (PaPBP3) (Pseudomonas aeruginosa, UniProt G3XD46), turned out to be 5.15

----------
Test system: T-lymphoblast CCRF-CEM cell line
PROCEDURE DETAILS: Cytotoxicity assay (PrestoBlue), CCRF-CEM
PARTICULARS: CC50, 72 h
Experimental: We finally tested the cytotoxicity of the compounds against four eukaryotic cell lines (Table 2 and Table S5), NRK-52E, an epithelial kidney cell line of Rattus norvegicus; Hep G2, an human epithelial liver cell line; and two suspension cell lines: CCRF-CEM, a T lymphoblast; and H9, a cutaneous T lymphocyte cell line. Cell lines stored at −120 °C were thawed to 37 °C and resuspended in 10 mL of medium pre-warmed to 37 °C. […]
Listed molecules paired with reported Cytotoxicity CCRF-CEM

Some solved cases for reference:
O=C(C1=C(O)C(=O)N(Cc2cscn2)C1c1ccc(Cl)cc1)c1ccc(Br)cc1 (stereo not drawn) ... >100 µM
O=C(C1=C(O)C(=O)N(Cc2cc3cc(Cl)ccc3[nH]2)C1c1ccc(Cl)cc1)c1ccc(Br)cc1 (stereo not drawn) ... > 100 µM
CCNC1=C(C(=O)c2ccc(Br)cc2)C(c2ccc(Cl)cc2)N(Cc2cccc(F)c2)C1=O (stereo not drawn) ... > 100 µM
O=C1NC(c2ccc(Cl)cc2)C(C(=O)c2ccc(Br)cc2)=C1O (stereo not drawn) ... 94 ± 6 µM
O=C(C1=C(O)C(=O)N(CCc2c[nH]c3ccccc23)C1c1ccc(Cl)cc1)c1ccc(Br)cc1 (stereo not drawn) ... 93 ± 4 µM

Now look at this one.
Reported Cytotoxicity CCRF-CEM for C[C@@H]1C[C@@H]([C@H](O)CC2CC(=O)NC(=O)C2)C(=O)[C@@H](C)C1 [Cycloheximide, reference compound] was 0.66 ± 0.5 µM

----------
System: P. aeruginosa K2896 ΔmexBΔmexXYΔmexCD-oprJ
PROCEDURE DETAILS: MIC broth microdilution, P. aeruginosa K2896 efflux mutant
Assay type: cell-based, Pseudomonas aeruginosa
PARTICULARS: ΔmexB; ΔmexX, ΔmexCD-oprJ, with 4 µg/mL PMBN
Source text: The results presented above implied that seven pyrrolidine-2,3-dione derivatives inhibited the activity of ^PaPBP3 in vitro. Consequently, we were very interested in investigating the potential of these compounds to affect the growth of P. aeruginosa. Two P. aeruginosa bacterial strains (the wild-type PAO1 and the isogenic ΔmexB ΔmexX ΔmexCD-oprJ efflux pump mutant) were used to determine the MIC and the potential role of the main P. aeruginosa efflux systems in compound uptake. […]
Listed compounds paired with reported MIC (µM) against P. aeruginosa K28926

O=C(C1=C(O)C(=O)N(Cc2cscn2)C1c1ccc(Cl)cc1)c1ccc(Br)cc1 (stereo not drawn) ... >100 µM
O=C(C1=C(O)C(=O)N(Cc2cc3cnccc3[nH]2)C1c1ccc(Cl)cc1)c1ccc(Br)cc1 (stereo not drawn) ... 100 µM
CCN1C(=O)C(O)=C(C(=O)c2ccc(Br)cc2)C1c1ccc(Cl)cc1 (stereo not drawn) ... >100 µM
CN(C)c1cc(NC(=O)CNC(C)(C)C)c(O)c2c1C[C@H]1C[C@H]3[C@H](N(C)C)C(O)=C(C(N)=O)C(=O)[C@@]3(O)C(O)=C1C2=O [Tygecyclin, tigecycline, reference compound] ... 0.2 µM
CCNC1=C(C(=O)c2ccc(Br)cc2)C(c2ccc(Cl)cc2)N(Cc2cccc(F)c2)C1=O (stereo not drawn) ... >100 µM

Now look at this one.
Reported MIC (µM) against P. aeruginosa K28926 for O=C(C1=C(O)C(=O)N(Cc2ccco2)C1c1ccc(Cl)cc1)c1ccc(Br)cc1 (stereo not drawn) was 25 µM
